Molecular target: hGIPR (Homo sapiens, UniProt P48546)
Sequence (P48546 22-466): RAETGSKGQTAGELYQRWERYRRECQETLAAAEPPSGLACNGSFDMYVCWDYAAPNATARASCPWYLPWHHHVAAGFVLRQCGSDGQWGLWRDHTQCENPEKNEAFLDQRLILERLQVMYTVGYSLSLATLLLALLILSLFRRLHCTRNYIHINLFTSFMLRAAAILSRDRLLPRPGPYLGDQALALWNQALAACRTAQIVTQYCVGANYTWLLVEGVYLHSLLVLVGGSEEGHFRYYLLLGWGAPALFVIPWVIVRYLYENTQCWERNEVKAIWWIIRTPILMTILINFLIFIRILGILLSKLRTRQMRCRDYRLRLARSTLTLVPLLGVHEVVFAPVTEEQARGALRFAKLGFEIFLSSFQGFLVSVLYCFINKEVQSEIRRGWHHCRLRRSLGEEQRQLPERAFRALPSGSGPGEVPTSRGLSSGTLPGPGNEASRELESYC
Test: Functional cAMP activation in the presence of 0.1% casein (no HSA);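 further: intracellular cAMP rise after 30 min at 37 °C read by HTRF against a standard curve, scaled between buffer alone (0%) and top control ligand concentration (100%), four-parameter fit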
Type: cell-based
Settings: read-out: Relative cAMP EC50, hGIPR
Starred links: 1 amine or outer side, 2 acyl side, 3 side chain; linkers in the order of their positions; H or OH if unused. Non-standard residues stand in square brackets, D forms with d. Groups on a side chain read outwards from the residue. *: point of attachment. C18 diacid = O=C(O)CCCCCCCCCCCCCCCCC(=O)*; αMePhe(2-F) = C[C@](N)(Cc1ccccc1F)C(=O)O; γGlu = O=C(O)[C@H](CCC(=O)[*:2])N[*:1]; αMe4Pal = C[C@](N)(Cc1ccncc1)C(=O)O; αMeY = C[C@](N)(Cc1ccc(O)cc1)C(=O)O; 4Pal = N[C@@H](Cc1ccncc1)C(=O)O; αMeL = CC(C)C[C@](C)(N)C(=O)O; αMeS = C[C@](N)(CO)C(=O)O; Orn = NCCC[C@H](N)C(=O)O; AEEA = NCCOCCOCC(=O)O; Aib = CC(C)(N)C(=O)O
reported_metric: EC50

Consider the reported EC50 for these substances:
substance | EC50
H-Y[Aib]QGT[αMePhe(2-F)]TSD[4Pal]SILLDKK([AEEA-γGlu-C18 diacid])AQ[Aib]AFIE[αMeY]LEEGGPSSGAPPPSGTGE-NH2 [Example 669] | 0.0145 nM
H-Y[Aib]QGT[αMePhe(2-F)]TSD[4Pal][αMeS]I[αMeL]LD[Orn]K([AEEA-γGlu-C18 diacid])AQ[Aib][Orn]FI[dE][αMeY]LIEGGPSSGEPPPSEG-NH2 [Example 401] | 0.0183 nM
H-Y[Aib]QGT[αMePhe(2-F)]TSD[4Pal]SI[αMeL]LD[Orn]K([AEEA-γGlu-C18 diacid])AQ[αMe4Pal][Orn]FI[dE][αMeY]LIEGGPSSGEPPPSGS-NH2 [Example 706] | 0.00911 nM

Given the substance H-Y[Aib]QGT[αMePhe(2-F)]TSD[4Pal][αMeS]I[αMeL]LD[Orn]K([AEEA-γGlu-C18 diacid])AA[Aib]EFI[dE][αMeY]LIEGGPSSGEPPPSGGGE-NH2 [Example 746] , what is its reported EC50?
0.0119 nM

Next record, please: H-Y[Aib]QGT[αMePhe(2-F)]TSD[4Pal]SI[αMeL]LD[Orn]K([AEEA-γGlu-C18 diacid])AQ[αMe4Pal][Orn]FI[dE][αMeY]LEEGGPSSGEPPPEGT-NH2 [Example 506]
0.308 nM
